Molecular target: Vascular endothelial growth factor receptor 2 (Homo sapiens, UniProt P35968)
Sequence (P35968 whole entry): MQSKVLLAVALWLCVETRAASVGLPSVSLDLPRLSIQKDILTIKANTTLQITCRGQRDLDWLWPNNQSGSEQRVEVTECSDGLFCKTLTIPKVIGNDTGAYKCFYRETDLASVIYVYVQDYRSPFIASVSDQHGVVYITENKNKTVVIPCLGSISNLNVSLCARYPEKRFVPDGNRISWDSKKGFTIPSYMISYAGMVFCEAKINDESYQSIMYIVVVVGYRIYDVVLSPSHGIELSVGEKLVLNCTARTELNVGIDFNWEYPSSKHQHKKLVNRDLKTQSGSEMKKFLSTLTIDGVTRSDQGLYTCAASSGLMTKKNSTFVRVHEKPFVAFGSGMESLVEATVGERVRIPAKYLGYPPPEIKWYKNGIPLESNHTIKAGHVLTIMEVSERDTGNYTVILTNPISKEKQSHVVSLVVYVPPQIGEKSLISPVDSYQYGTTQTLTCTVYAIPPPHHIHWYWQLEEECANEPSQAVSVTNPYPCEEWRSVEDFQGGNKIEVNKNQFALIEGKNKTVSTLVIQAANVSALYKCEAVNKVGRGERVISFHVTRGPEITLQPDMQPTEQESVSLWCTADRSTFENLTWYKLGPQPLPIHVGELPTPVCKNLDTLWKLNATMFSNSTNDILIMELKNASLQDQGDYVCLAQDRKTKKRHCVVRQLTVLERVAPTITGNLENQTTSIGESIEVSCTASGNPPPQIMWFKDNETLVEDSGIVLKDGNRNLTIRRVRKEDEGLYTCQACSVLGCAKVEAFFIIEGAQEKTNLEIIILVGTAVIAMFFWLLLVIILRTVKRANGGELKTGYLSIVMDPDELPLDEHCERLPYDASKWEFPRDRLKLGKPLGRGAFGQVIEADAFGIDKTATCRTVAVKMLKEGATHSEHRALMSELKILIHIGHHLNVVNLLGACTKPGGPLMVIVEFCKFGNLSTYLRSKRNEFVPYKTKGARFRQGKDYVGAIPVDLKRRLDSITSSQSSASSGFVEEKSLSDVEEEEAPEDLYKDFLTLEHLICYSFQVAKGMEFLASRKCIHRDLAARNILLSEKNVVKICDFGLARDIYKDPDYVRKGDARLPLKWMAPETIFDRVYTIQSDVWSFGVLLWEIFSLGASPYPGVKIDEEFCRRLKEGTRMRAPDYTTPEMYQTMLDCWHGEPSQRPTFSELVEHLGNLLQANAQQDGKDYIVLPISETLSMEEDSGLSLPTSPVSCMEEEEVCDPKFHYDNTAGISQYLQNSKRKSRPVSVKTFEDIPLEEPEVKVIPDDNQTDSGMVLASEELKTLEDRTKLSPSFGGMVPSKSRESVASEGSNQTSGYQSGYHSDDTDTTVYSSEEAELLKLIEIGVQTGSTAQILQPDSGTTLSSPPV
Assay: Inhibition of human recombinant VEGFR2 expressed in Sf9 cells after 60 mins
pIC50: −log10 of the molar value.
pIC50 below 5 gives No; pIC50 at or above it gives Yes.

Exercise: Textbook exercise: given the entry "COc1cc(O)c2c(c1)/C=C\CCCC(=O)/C=C/C[C@H](C)OC2=O" , state whether its pIC50 is greater than or equal to 5.
Solution: Yes

Exercise: Please indicate if the recorded pIC50 for "COc1cc(O)c2c(c1)CCCCCC(=O)/C=C/C[C@H](C)OC2=O" meets or exceeds 5.
Solution: Yes

Exercise: pIC50 >= 5 for "COc1cc(O)c2c(c1)CCCCCC(=O)/C=C\C[C@H](C)OC2=O" ?
Solution: Yes

Exercise: Quick check, pIC50 >= 5? "COc1cc(O)c2c(c1)/C=C/CCCC(=O)/C=C/C[C@H](C)OC2=O"
Solution: Yes

---
Exercise: Is reported pIC50 greater than or equal to 5 here: "COc1cc(O)c2c(c1)/C=C/CCCC(=O)C[C@H](Br)C[C@H](C)OC2=O"
Solution: No

Exercise: Kindly determine if pIC50 recorded for "COc1cc(O)c2c(c1)/C=C/C[C@@H](O)[C@H](O)C(=O)/C=C\C[C@H](C)OC2=O" is above or exactly 5.
Solution: Yes

Exercise: # check: pIC50 of "COc1cc(O)c2c(c1)/C=C\CCCC(=O)C[C@H](Br)C[C@H](C)OC2=O" is greater than or equal to 5
Solution: No

Exercise: Please indicate if the recorded pIC50 for "COc1cc(O)c2c(c1)CCCCCC(=O)C[C@H](Br)C[C@H](C)OC2=O" meets or exceeds 5.
Solution: Yes

Exercise: Assess whether reported pIC50 for "COc1cc(O)c2c(c1)/C=C\CCCC(=O)C[C@H](Cl)C[C@H](C)OC2=O" sits at 5 or higher.
Solution: No

Exercise: Hi, just wondering whether "COc1cc(O)c2c(c1)CCCCCC(=O)C[C@H](Cl)C[C@H](C)OC2=O" shows pIC50 of 5 or higher.
Solution: No

---

Biological target: Mitogen-activated protein kinase 7 (Homo sapiens)
Sequence (Q13164 whole entry): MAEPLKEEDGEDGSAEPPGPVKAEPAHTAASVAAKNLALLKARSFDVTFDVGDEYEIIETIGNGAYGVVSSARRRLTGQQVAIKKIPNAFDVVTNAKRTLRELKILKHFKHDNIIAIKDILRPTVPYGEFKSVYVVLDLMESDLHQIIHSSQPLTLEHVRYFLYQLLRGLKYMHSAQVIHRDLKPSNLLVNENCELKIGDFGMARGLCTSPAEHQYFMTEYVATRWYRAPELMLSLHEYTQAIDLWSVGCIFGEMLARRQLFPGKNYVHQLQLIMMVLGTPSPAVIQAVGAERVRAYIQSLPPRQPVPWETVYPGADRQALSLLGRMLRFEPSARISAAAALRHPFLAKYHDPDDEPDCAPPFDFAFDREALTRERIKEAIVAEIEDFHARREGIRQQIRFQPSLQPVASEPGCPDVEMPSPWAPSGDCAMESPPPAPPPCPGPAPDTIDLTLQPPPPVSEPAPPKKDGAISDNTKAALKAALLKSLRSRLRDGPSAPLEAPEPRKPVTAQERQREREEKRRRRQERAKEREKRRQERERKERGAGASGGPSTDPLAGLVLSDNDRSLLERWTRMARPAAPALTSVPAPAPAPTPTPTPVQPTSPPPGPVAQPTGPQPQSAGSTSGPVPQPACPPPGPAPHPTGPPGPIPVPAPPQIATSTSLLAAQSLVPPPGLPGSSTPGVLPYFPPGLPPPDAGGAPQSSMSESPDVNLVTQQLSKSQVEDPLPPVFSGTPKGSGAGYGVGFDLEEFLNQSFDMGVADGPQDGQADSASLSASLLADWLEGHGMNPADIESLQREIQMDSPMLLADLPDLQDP
Assay: Inhibition of human recombinant ERK5 in cell free system after 90 mins
pIC50: −log10 of the molar value.
QUANTITY: pIC50

Exercise: State the recorded pIC50 for this entry: "COc1cc(O)c2c(c1)/C=C/C[C@@H](O)[C@H](O)C(=O)/C=C\C[C@H](C)OC2=O"
Solution: < 4.00

---

Target: Mast/stem cell growth factor receptor Kit (Homo sapiens)
Sequence (P10721 whole entry): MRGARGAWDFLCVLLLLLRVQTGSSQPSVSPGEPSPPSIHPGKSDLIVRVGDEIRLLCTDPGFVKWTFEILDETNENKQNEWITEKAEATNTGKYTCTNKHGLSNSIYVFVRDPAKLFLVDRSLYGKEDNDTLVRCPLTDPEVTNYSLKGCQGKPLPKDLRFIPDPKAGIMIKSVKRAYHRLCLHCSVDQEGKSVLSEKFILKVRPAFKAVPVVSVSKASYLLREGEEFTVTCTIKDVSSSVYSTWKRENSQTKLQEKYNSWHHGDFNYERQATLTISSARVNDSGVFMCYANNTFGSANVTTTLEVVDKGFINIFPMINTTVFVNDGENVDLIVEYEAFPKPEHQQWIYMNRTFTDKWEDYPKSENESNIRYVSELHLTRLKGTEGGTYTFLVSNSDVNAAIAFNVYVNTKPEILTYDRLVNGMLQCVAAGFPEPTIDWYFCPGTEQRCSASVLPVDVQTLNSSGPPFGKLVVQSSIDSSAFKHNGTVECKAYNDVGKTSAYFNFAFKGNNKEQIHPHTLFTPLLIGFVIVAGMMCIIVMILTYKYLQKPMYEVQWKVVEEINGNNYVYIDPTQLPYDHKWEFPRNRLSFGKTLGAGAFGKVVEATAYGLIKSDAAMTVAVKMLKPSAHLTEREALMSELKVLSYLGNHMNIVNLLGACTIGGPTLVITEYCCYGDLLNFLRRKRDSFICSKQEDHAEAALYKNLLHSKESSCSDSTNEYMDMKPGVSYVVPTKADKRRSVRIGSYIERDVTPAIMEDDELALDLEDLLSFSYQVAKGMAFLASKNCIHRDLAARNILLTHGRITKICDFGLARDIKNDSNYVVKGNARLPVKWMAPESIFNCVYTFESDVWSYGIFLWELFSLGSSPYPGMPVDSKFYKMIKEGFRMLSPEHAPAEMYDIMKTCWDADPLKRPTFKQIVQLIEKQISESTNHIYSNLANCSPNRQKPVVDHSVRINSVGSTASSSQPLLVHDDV
Experiment: Inhibition of human recombinant c-kit kinase in cell free system after 30 mins
QUANTITY: log10 of IC50 (log10 of the value in µM)
Recall that a logarithmic scale is used here: each number is log10 of IC50 in µM.

Exercise: I am curious: what log10 of IC50 value has been reported for "COc1cc(O)c2c(c1)/C=C\CCCC(=O)C[C@H](Cl)C[C@H](C)OC2=O" ?
Solution: 2.00

Continuing:
Exercise: Fill in the blank: the reported log10 of IC50 of "COc1cc(O)c2c(c1)CCCCCC(=O)/C=C/C[C@H](C)OC2=O" is ____.
Solution: 0.11

---

Molecular target: Dual specificity mitogen-activated protein kinase kinase 1 (Homo sapiens, UniProt Q02750)
Sequence (Q02750 whole entry): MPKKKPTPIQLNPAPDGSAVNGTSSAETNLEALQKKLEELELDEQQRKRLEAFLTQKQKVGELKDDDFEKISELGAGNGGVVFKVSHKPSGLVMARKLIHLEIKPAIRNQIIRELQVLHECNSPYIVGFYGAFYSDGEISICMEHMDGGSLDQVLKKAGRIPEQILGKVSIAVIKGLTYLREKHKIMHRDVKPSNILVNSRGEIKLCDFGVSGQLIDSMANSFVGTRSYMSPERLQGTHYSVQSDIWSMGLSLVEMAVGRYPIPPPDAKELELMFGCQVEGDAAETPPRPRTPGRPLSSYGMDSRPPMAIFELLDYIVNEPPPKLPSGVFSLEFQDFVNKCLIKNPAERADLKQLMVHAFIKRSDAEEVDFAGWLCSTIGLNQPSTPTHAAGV
Experiment: Inhibition of human recombinant MEK1 expressed in insect cells after 20 mins
Entries and their IC50 values follow.
Form entry: value (µM) — number only.

Below are worked cases with known answers.
Exercise: Return IC50 measured with Dual specificity mitogen-activated protein kinase kinase 1 (Homo sapiens, UniProt Q02750) given this compound: "COc1cc(O)c2c(c1)/C=C/CCCC(=O)/C=C/C[C@H](C)OC2=O"
Solution: 22

Exercise: What value of IC50 on Dual specificity mitogen-activated protein kinase kinase 1 (Homo sapiens, UniProt Q02750) does "COc1cc(O)c2c(c1)CCCCCC(=O)/C=C/C[C@H](C)OC2=O" have?
Solution: 12

Exercise: Notebook entry, Dual specificity mitogen-activated protein kinase kinase 1 (Homo sapiens, UniProt Q02750) assay: IC50 of "COc1cc(O)c2c(c1)/C=C/C[C@@H](O)[C@H](O)C(=O)/C=C\C[C@H](C)OC2=O" = ?
Solution: 0.002

Let us examine a further case.
Exercise: Form field - read-out: IC50; system: Dual specificity mitogen-activated protein kinase kinase 1 (Homo sapiens, UniProt Q02750); submitted item: "COc1cc(O)c2c(c1)CCCCCC(=O)/C=C\C[C@H](C)OC2=O"
Solution: 17
